Provide the recorded log10 Ki for the entries that follow.
# Experimental system: non-opioid (naloxone-insensitive) receptors for β-endorphin on T lymphocytes from normal human blood (human)
# Test: displacement of 1 nM [125I]β-endorphin from human T lymphocytes; Ki=IC50/(1+[L]/Kd)
Record value = log10 of Ki given in nM.

For record H-TCLVKGFY-OH [H-TCLVKGFY-OH] the listed log10 Ki is 0.34

The binder listed as H-LVKGFY-OH [H-LVKGFY-OH] shows log10 Ki equal to 0.90

Measured log10 Ki of H-CLVKGFY-OH [H-CLVKGFY-OH] : 0.53

Entry H-LTCLVKGFY-OH [H-…-OH] , log10 Ki reported as 0.00

For this binder ( H-VKGFY-OH [pentarphin (H-VKGFY-OH)] ), measured log10 Ki is 1.18
